Cited source: patent US20100239571A1

# subject.of.test: T1, CD30 surface antigen expressed on Karpas-299 (human, UniProt P28908 19-595)
# T1 construct: whole, on cells; also called human CD30
# T1 sequence (looked up): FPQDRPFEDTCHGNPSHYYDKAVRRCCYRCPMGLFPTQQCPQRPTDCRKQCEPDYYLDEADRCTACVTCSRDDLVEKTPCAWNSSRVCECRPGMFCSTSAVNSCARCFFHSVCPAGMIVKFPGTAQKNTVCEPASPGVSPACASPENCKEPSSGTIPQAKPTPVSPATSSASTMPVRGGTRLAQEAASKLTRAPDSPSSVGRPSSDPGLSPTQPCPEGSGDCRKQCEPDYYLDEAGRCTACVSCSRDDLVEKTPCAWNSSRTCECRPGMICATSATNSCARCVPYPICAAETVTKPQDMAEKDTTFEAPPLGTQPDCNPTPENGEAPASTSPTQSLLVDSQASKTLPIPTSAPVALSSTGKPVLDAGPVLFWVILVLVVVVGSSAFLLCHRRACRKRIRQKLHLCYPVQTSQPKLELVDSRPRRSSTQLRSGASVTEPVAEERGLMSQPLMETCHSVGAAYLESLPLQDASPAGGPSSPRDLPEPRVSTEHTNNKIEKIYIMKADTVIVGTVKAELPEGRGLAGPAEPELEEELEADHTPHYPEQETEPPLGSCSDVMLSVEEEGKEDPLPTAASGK
# test.method.notes: competition binding on Karpas 299 cells against europium-labeled cAC10
Record form. Attribute: EC50. Fill in for each entry.
The reply should contain only the number, in nM.

Asked: EC50 for hAC10 HALB (antibody, human IgG1, kappa, V domains shown, Human IgG1 / kappa; also called humanized AC10 variant HALB; hVH A + hVL B) VH: QVQLVQSGAEVKKPGASVKVSCKASGYTFTDYYITWVRQAPGQGLEWMGWIYPGSGNTKYNEKFKGRVTMTVDTSISTAYMELSRLRSDDTAVYFCANYGNYWFAYWGQGTLVTVSS VL: DIVMTQSPDSLAVSLGERATINCKSSQSVDFDGDSYMNWYQQKPGQPPKLLIYAASNLESGVPDRFSGSGSGTDFTLTISSLQAEDVAVYYCQQSNEDPWTFGQGTKVEIKR ?
Given back: 5.9

Asked: EC50 for hAC10 HBLA (antibody, human IgG1, kappa, V domains shown, Human IgG1 / kappa; also called humanized AC10 variant HBLA; hVH B + hVL A) VH: QVQLVQSGAEVKKPGASVKVSCKASGYTFTDYYITWVRQAPGQGLEWMGWIYPGSGNTKYNEKFKGRVTMTRDTSISTAYMELSRLRSDDTAVYFCANYGNYWFAYWGQGTLVTVSS VL: DIVMTQSPDSLAVSLGERATINCKASQSVDFDGDSYMNWYQQKPGQPPKLLIYAASNLESGVPDRFSGSGSGTDFTLTISSLQAEDVAVYYCQQSNEDPWTFGQGTKVEIKR ?
Given back: 3.31

Asked: EC50 for hAC10 HDLD (antibody, human IgG1, kappa, V domains shown, Human IgG1 / kappa; also called humanized AC10 variant HDLD; hVH D + hVL D) VH: QVQLVQSGAEVKKPGASVKVSCKASGYTFTDYYITWVRQAPGQGLEWMGWIYPGSGNTKYNEKFKGRVTMTRDTSISTAYMELSRLRSDDTAVYYCANYGNYWFAYWGQGTLVTVSS VL: DIVMTQSPDSLAVSLGERATINCKSSQSVDFDGDSYLNWYQQKPGQPPKLLIYAASNLESGVPDRFSGSGSGTDFTLTISSLQAEDVAVYYCQQSNEDPWTFGQGTKVEIKR ?
Given back: 2.25

Asked: EC50 for hAC10 HALA (antibody, human IgG1, kappa, V domains shown, The name HALA is read as heavy variant A plus light variant A; also called humanized AC10 variant HALA; hVH A + hVL A) VH: QVQLVQSGAEVKKPGASVKVSCKASGYTFTDYYITWVRQAPGQGLEWMGWIYPGSGNTKYNEKFKGRVTMTVDTSISTAYMELSRLRSDDTAVYFCANYGNYWFAYWGQGTLVTVSS VL: DIVMTQSPDSLAVSLGERATINCKASQSVDFDGDSYMNWYQQKPGQPPKLLIYAASNLESGVPDRFSGSGSGTDFTLTISSLQAEDVAVYYCQQSNEDPWTFGQGTKVEIKR ?
Given back: 6.61

Asked: EC50 for hAC10 HDLA (antibody, human IgG1, kappa, V domains shown, Human IgG1 / kappa; also called humanized AC10 variant HDLA; antibody HDLA) VH: QVQLVQSGAEVKKPGASVKVSCKASGYTFTDYYITWVRQAPGQGLEWMGWIYPGSGNTKYNEKFKGRVTMTRDTSISTAYMELSRLRSDDTAVYYCANYGNYWFAYWGQGTLVTVSS VL: DIVMTQSPDSLAVSLGERATINCKASQSVDFDGDSYMNWYQQKPGQPPKLLIYAASNLESGVPDRFSGSGSGTDFTLTISSLQAEDVAVYYCQQSNEDPWTFGQGTKVEIKR ?
Given back: 3.1

Asked: EC50 for hAC10 HALD (antibody, human IgG1, kappa, V domains shown, Human IgG1 / kappa; also called humanized AC10 variant HALD; hVH A + hVL D) VH: QVQLVQSGAEVKKPGASVKVSCKASGYTFTDYYITWVRQAPGQGLEWMGWIYPGSGNTKYNEKFKGRVTMTVDTSISTAYMELSRLRSDDTAVYFCANYGNYWFAYWGQGTLVTVSS VL: DIVMTQSPDSLAVSLGERATINCKSSQSVDFDGDSYLNWYQQKPGQPPKLLIYAASNLESGVPDRFSGSGSGTDFTLTISSLQAEDVAVYYCQQSNEDPWTFGQGTKVEIKR ?
Given back: 6

Asked: EC50 for hAC10 HALC (antibody, human IgG1, kappa, V domains shown, Human IgG1 / kappa; also called humanized AC10 variant HALC; hVH A + hVL C) VH: QVQLVQSGAEVKKPGASVKVSCKASGYTFTDYYITWVRQAPGQGLEWMGWIYPGSGNTKYNEKFKGRVTMTVDTSISTAYMELSRLRSDDTAVYFCANYGNYWFAYWGQGTLVTVSS VL: DIVMTQSPDSLAVSLGERATINCKASQSVDFDGDSYLNWYQQKPGQPPKLLIYAASNLESGVPDRFSGSGSGTDFTLTISSLQAEDVAVYYCQQSNEDPWTFGQGTKVEIKR ?
Given back: 3.53

Asked: EC50 for hAC10 HCLA (antibody, human IgG1, kappa, V domains shown, Human IgG1 / kappa; also called humanized AC10 variant HCLA; hVH C + hVL A) VH: QVQLVQSGAEVKKPGASVKVSCKASGYTFTDYYITWVRQAPGQGLEWMGWIYPGSGNTKYNEKFKGRVTMTVDTSISTAYMELSRLRSDDTAVYYCANYGNYWFAYWGQGTLVTVSS VL: DIVMTQSPDSLAVSLGERATINCKASQSVDFDGDSYMNWYQQKPGQPPKLLIYAASNLESGVPDRFSGSGSGTDFTLTISSLQAEDVAVYYCQQSNEDPWTFGQGTKVEIKR ?
Given back: 3.61
